Biological target: His-tagged human recombinant DCTPP1 protein (Homo sapiens, UniProt Q9H773)
Construct: His; purchased ATGen
Sequence (Q9H773 1-170): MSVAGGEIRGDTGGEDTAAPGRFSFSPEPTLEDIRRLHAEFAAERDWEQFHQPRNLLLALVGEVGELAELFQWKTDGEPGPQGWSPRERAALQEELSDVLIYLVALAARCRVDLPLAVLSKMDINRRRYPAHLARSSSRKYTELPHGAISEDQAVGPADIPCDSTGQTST
Test: DCTPP1 enzyme assay
Format: biochemical
Conditions: at 100 μM
Experimental endpoint: effect on enzymatic activity of DCTPP1

Compound: Nc1nc(NCCc2ccccc2)c2nc[nH]c2n1
Experimental endpoint: effect on enzymatic activity of DCTPP1
Observed value: did not affect
//
Compound: COc1ccc2nc3c(c(C)nn3C)c(NCCOCCO)c2c1 [SCH51344, reference compound]
Experimental endpoint: effect on enzymatic activity of DCTPP1
Observed value: slightly inhibited
//
Compound: CC1(C)CC2CC(C)(CN2c2ncnc3[nH]cnc23)C1 (stereo not shown)
Experimental endpoint: effect on enzymatic activity of DCTPP1
Observed value: did not affect
//
Compound: C[C@H](Oc1cc(-c2cnn(C3CCNCC3)c2)cnc1N)c1c(Cl)ccc(F)c1Cl [(S)-crizotinib, reference compound]
Experimental endpoint: effect on enzymatic activity of DCTPP1
Observed value: slightly inhibited

// provenance: paper PMC4876372
